Cited source: the supplement of paper PMC7877785

assay: self-splicing fitness, log relative to wild type (ln ratio); higher = more splicing; Tetrahymena group I intron in knt gene, E. coli kanamycin selection, DiMSum; sequences stand for … in CUCUCU…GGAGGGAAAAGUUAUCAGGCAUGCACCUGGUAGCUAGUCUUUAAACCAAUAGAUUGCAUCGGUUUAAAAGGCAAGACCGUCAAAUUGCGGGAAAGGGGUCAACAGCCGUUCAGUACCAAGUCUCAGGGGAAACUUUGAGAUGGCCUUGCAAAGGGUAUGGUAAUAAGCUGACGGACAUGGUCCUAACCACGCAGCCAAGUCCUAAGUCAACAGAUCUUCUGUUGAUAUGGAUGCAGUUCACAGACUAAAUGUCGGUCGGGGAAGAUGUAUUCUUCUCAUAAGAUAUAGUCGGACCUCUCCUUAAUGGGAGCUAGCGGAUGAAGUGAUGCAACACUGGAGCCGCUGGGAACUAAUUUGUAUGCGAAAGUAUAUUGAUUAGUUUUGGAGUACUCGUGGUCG; settings: 30 °C;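 further: selection with 25 µg/mL kanamycin versus none on LB agar overnight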
Quick rule: self-splicing fitness (ln) of at least -3 means y, below that means n.

> print(dat)
        monomer.sequence  cat
 1  AUCAAGCAAUAUUACGAUAC    n
 2  CUGGAGCAAUAUUACGGUAU    n
 3  CGAUAGCAAUAUUACGGUGA    y
 4  ACGAAGCAAUAUUACGUCAC    n
 5  AUCUAGCAAUAUUACGGGCU    y
 6  GGGCAGCAAUAUUACGGGUC    y
 7  CCAUAGCAAUAUUACGGCCC    y
 8  UUACAGCAAUAUUACGCUAU    n
 9  CAAGAGCAAUAUUACGACAU    n
10  GCAGAGCAAUAUUACGGAAU    n
11  GCGGAGCAAUAUUACGCCAG    y
12  CGUGAGCAAUAUUACGUGUA    n
13  AAGUAGCAAUAUUACGUUAC    n
14  UACCAGCAAUAUUACGGUGG    n
15  UCAGAGCAAUAUUACGAGGC    y
16  UGAUAGCAAUAUUACGUGAG    y
17  GGCAAGCAAUAUUACGACCU    y
18  GUUUAGCAAUAUUACGUGCA    y
19  AUGGAGCAAUAUUACGUUGG    n
20  UCAAAGCAAUAUUACGUCGU    y
21  CAGGAGCAAUAUUACGAAAU    y
22  CAUAAGCAAUAUUACGAUGC    n
23  AAUCAGCAAUAUUACGGUUC    y
24  GUAUAGCAAUAUUACGUUUG    n
25  AUGUAGCAAUAUUACGCCCU    y
26  UAAUAGCAAUAUUACGCAAU    n
27  CUCCAGCAAUAUUACGGAGC    y
28  CAGCAGCAAUAUUACGGGUG    y
29  GGUUAGCAAUAUUACGGUCC    y
30  GCUCAGCAAUAUUACGCUUA    y
31  UCGUAGCAAUAUUACGGCUA    y
32  CAGCAGCAAUAUUACGAAAA    y
33  UAGUAGCAAUAUUACGUAUU    n
34  UAUGAGCAAUAUUACGAUUU    n
35  CAGAAGCAAUAUUACGAAUU    n
36  GGUUAGCAAUAUUACGCGGC    y
37  UUCUAGCAAUAUUACGAUGG    y
38  AUCUAGCAAUAUUACGUAUG    y
39  GGGAAGCAAUAUUACGCGUC    n
40  UAGGAGCAAUAUUACGAAUG    y
41  GGUGAGCAAUAUUACGUGGU    n
42  ACCAAGCAAUAUUACGUUGU    y
43  GCAAAGCAAUAUUACGGCAG    n
44  UCCAAGCAAUAUUACGUCUU    n
45  GGACAGCAAUAUUACGUCGG    y
46  CCACAGCAAUAUUACGUACA    y
47  CUGUAGCAAUAUUACGAAUG    y
48  CUUAAGCAAUAUUACGCCGU    n
49  CAGCAGCAAUAUUACGUGCU    n
50  GCGCAGCAAUAUUACGAAAA    y
51  UCAGAGCAAUAUUACGUAUC    y
52  UCGUAGCAAUAUUACGGCAG    y
53  AGCAAGCAAUAUUACGAGCA    y
54  AGCAAGCAAUAUUACGAAUU    y
55  CGGAAGCAAUAUUACGCGAA    y
56  GCGAAGCAAUAUUACGGGCA    y
57  CGAGAGCAAUAUUACGGCGA    y
58  AAACAGCAAUAUUACGCUCA    y
